Where do the numbers come from? From PubChem BioAssay AID1159580.

Test: chemical genetic growth profiling, strain panel (AID 1159580);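 note: tested at 20 µM; growth read once vehicle control cultures reached saturation at 30 °C; 1 = growth at the plate median or of vehicle wells; lower values mean less growth of the strain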
Settings: S. cerevisiae deletion strains, growth OD, locus YDR101C, strain arx1, hits give low values
The whole screen tested about 5,500 compounds, of which about 2,000 (36%) were called active. About 18% were inconclusive and are not listed. Some of the results follow.
QUANTITY MEASURED: normalized growth
// no unit, no text: just the number

# input compound: CCCCCCCCCCC[C@@H](C[C@H]1OC(=O)[C@H]1CCCCCC)OC(=O)[C@@H](CC(C)C)NC=O ; wanted: its normalized growth
1.03

What value of normalized growth has been recorded for this entry: COc1ccc2c(c1)OC/C(=C\c1ccc(OC)c(O)c1)C2=O
0.855

Which measured normalized growth value corresponds to COc1ccc2c(c1)OC/C(=C/c1ccc(OC)c(OC)c1)C2=O ?
0.963

Entry under review: CN(C)CCOC(c1ccc(Cl)cc1)c1ccccn1 (configuration not stated) . Reported normalized growth?
1.01

Bench note: what normalized growth did C=CCc1ccc(OC(=O)c2ccccc2)c(OC)c1 show?
0.919

Fill in: normalized growth of COC(=O)/C=C/C(C)=C/C=C/C(C)=C/C=C/C=C(C)/C=C/C=C(C)/C=C/C(=O)O is ___
0.997

Please report the recorded normalized growth for COc1ccc(C(=O)O)cc1OC .
1.01

What does the record list as normalized growth for COC(=O)c1cc(=O)c(O)c2c(O)c(O)ccc2c1 ?
0.842
